Each recorded value in this set is attributed to PubChem BioAssay AID1117319.

Below, each entry is listed alongside its reported inhibition.
biological target: Virion infectivity factor (Human immunodeficiency virus type 1 group M subtype B (isolate BH10)) + Virion infectivity factor (Human immunodeficiency virus type 1 group M subtype B (isolate BRU/LAI)) + Virion infectivity factor (Human immunodeficiency virus type 1 group M subtype B (isolate PCV12)) + Virion infectivity factor (Human immunodeficiency virus type 1 group M subtype B (isolate HXB2)) + DNA dC->dU-editing enzyme APOBEC-3G (Homo sapiens) (UniProt P69720+P69721+P69722+P69723+Q9HC16); experiment: inhibitors of Vif binding to APOBEC3G peptide, primary screen, biochemical, TR-FRET, GST-Vif 1-94, biotin-A3G peptide, dose response retest (AID 1117319); details: stronger effect = higher value;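 also: Vif residues 1-94 fused to GST binding biotinylated APOBEC3G peptide 110-148; 0% = full assay without inhibitor and 100% = GST in place of GST-Vif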
Hit rate of the full screen: of about 260,000 compounds, about 1,500 (0.58%) were called active. Another 5% or so got no clear call; they are omitted. A selection follows. Entries with a potency or affinity are not part of this list.
Number only, in %; omit the unit.

Check out these entries, answers already filled in.
> print(dat)
                            compound.string  numeric.value
1  CCN(CC(=O)Nc1c(F)cccc1F)C(=O)c1cccc(-n2cnnn2)c1          -3.65
2  CCN(CC(=O)Nc1c(F)cccc1F)C(=O)c1ccc(N2CCCC2=O)cc1          -13.8
3  CCN(CC(=O)Nc1ccc(NC(C)=O)cc1)C(=O)/C=C/c1c(C)nn(-c2ccc(F)cc2)c1Cl           0.81

Measured inhibition of "Cn1c(SCC(=O)NCc2ccco2)nnc1-c1cccs1" : -8.22

The compound listed as "CCn1c(SCC(=O)NC(=O)NCc2ccco2)nnc1-c1cccs1" has a reported inhibition of -5.61

Field inhibition (entry "CCN(CC(=O)Nc1ccc(NC(C)=O)cc1)C(=O)c1cccc(-n2cccc2)c1" ) reads 16.2
